molecular target: CD40L-induced CD86 expression on primary B-cells (UniProt P29965); experiment: Inhibition of CD40L-induced CD86 expression on primary B-cells (FACS); conditions: read-out: EC50 PEGylated peptide; PEGylated monomeric peptide
Sequence (P29965 whole entry): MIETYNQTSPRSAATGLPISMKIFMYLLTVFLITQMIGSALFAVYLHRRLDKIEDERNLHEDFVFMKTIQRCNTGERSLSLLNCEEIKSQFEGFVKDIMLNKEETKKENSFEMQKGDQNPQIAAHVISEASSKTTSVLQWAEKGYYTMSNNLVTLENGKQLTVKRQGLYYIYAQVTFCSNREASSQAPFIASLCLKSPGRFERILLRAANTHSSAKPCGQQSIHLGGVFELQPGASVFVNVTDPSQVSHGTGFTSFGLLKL
Sequence (P25942 21-277 partner): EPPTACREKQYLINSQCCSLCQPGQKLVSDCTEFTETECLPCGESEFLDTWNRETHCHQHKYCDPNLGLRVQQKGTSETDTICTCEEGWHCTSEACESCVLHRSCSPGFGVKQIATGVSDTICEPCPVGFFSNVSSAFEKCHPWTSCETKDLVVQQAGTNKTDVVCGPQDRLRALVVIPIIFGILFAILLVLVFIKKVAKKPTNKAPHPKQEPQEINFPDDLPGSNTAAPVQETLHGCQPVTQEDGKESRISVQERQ
Catalogue of EC50 readings, one per entry.
Response body: numeric value in nM, unit text excluded.

{"seq": "FHRMYVILQIIWFITPRWTFP [CD40L M7_206rd]", "result": 2000}

Continue with the sequence presented below.
Reported EC50, sequence VHSYYVWILQFYYKFRSYRWHYQIS [CD40L M1_82rd] : ____ 470
